# Tested on: IGROV1 ovarian
# measurement_description: NCI-60 one-dose screen, 48 h (100 = growth as untreated, 0 = no growth, -100 = all killed)
# condition: 10 µM unless noted
# Protocol: Growth inhibition of the IGROV1 human tumor cell line is measured as a screen for anti-cancer activity. Cells are grown in 96 well plates and exposed to the test compound for 48 hours. Compounds are tested at a single concentration, which is 10^-5 M for most compounds. The reported endpoint is percent growth (GI% or GIPRCNT), where numbers from 0 - 100% represent growth inhibition, and numbers from -100% - 0 represent cell death. For example, a value of 40 represents 60% growth inhibition. […]
Compounds without any hit were thinned out: in the full panel of roughly 83,000, 20% have a hit.
metric_name: growth (%)
Return type: number; implicit unit %.

Short answer for `COc1cc(-c2c3c(cn2CCN2CCCCC2)-c2oncc2CC3)cc(OC)c1OC` : growth was 104

Short answer for `COC(=O)c1ccc2[nH]c(O)c(C(=Nc3ccc(N(C)C(=O)CN4CCN(C)CC4)cc3)c3ccc([N+](=O)[O-])cc3)c2c1` : growth was 19.1

Short answer for C=CC1CN2CCC1CC2C(O)c1ccnc2ccc(OC)cc12 (stereo not drawn) : growth was -5.34

Short answer for `CN1CCN(Cc2ccc(NC(=O)c3cncc(C#Cc4c(N)ncc5ccc(F)cc45)c3)cc2C(F)(F)F)CC1` : growth was 11

Short answer for `O=C(CCC(=O)N(CCO)CCO)N(CCO)CCO` : growth was 98.1

Short answer for `CC[C@@H](C)/C=C(C)/C=C/C(=O)c1c(O)c(-c2ccc(OC(=O)[C@@]34CC[C@@](C)(C(=O)O3)C4(C)C)cc2)cn(O)c1=O` : growth was -18.6

Short answer for `COc1nc(OC)nc(-c2cc(C(=O)c3ccc(Br)cc3)n3cc(C)cc(C)c23)n1` : growth was 62.4

Short answer for `Nc1cc(N)c2nc(NCCc3ccc(Cl)c(Cl)c3)cnc2c1` : growth was 21.3

---

# Tested on: UO-31 renal
# measurement_description: NCI-60 one-dose screen, 48 h
# condition: 10 µM unless noted
About 83,000 compounds went through this panel and 20% of them were active in at least one assay; those are over-represented in the sample as a whole. The source made the active and inactive calls. How the source made its calls: active means growth percent below 10; inactive means the rest.
Hi! Could you answer with just one of these? yes (1) = active, no (0) = inactive

Task: Called result for `O=C1N/C(=N\c2nnc(-c3ccc(O)cc3)s2)S/C1=C\c1ccccc1O`
Output: no (0)

Task: Called result for `N=C(N)c1ccc(-c2ccc(-c3ccc(F)cc3)s2)cc1`
Output: yes (1)

Task: Called result for `Nc1cc2c(cc1Br)[nH]c(=O)c1ccccc12`
Output: no (0)

Task: Called result for `Cc1nc2ccccc2c(=O)n1-c1cccc(OCc2cn(-c3cccc(O)c3)nn2)c1`
Output: no (0)

Task: Called result for `COc1ccc(-c2nc(SCC(C)C)nc(Nc3ccc(C)cc3)c2C#N)cc1`
Output: no (0)

Task: Called result for CC(C)(C)C(=O)OCOP(=O)(OCOC(=O)C(C)(C)C)C1CC(O)N(O)C1=O (stereo unspecified)
Output: no (0)

Task: Called result for `CC1(C)N=C(N)N=C(N)N1c1cccc(CCCCOc2ccccc2)c1`
Output: no (0)

Task: Called result for CC(C)(C)C(=O)CCCCCCCC/C=C/CCCC(O)c1ccco1 (stereo unspecified)
Output: no (0)

Task: Called result for `CCN(CCO)CCNc1ccc(C)c2sc3cc(OC)ccc3c(=O)c12`
Output: no (0)

Task: Called result for `Cc1nc(NC(=O)NC2CCCCC2)sc1C(=O)NN`
Output: no (0)

Task: Called result for `CC(=O)Nc1nc(C)c(C(=O)NN)s1`
Output: no (0)

Task: Called result for `O=C(/C=C1\C(=O)N(Cc2ccc([N+](=O)[O-])cc2)c2ccccc21)c1ccc(OCCN2CCCCC2)cc1`
Output: yes (1)

Task: Called result for `CCc1c(C)c2ccc(OCC(=O)N=Nc3c(O)[nH]c4ccccc34)c(C)c2oc1=O`
Output: no (0)

Task: Called result for `Cc1nn(-c2ccccc2)c(N)c1N=C1NC(=O)/C(=C/c2ccc(Cl)cc2)S1`
Output: no (0)

Task: Called result for `COc1ccc(C(=O)CN2C(=O)NC(c3ccccc3)(c3ccccc3)C2=O)cc1`
Output: no (0)

Task: Called result for `O=C(NCCNCCO)c1cc([N+](=O)[O-])cc([N+](=O)[O-])c1O`
Output: no (0)

Task: Called result for `CC(=O)Nc1nc(C)c(C(=O)N/N=C/c2cccs2)s1`
Output: no (0)

Task: Called result for `COc1ccc2c(N)ncc(C#Cc3cc(C(=O)Nc4ccc(CN5CCN(C)CC5)c(C(F)(F)F)c4)cnc3C)c2c1`
Output: yes (1)

Task: Called result for `CCOC(=O)c1cc(C(=O)c2ccc(Br)cc2)n2cc(C)cc(C)c12`
Output: no (0)

Task: Called result for `Cc1nnc(/N=C2\NC(=O)/C(=C/C=C/c3ccccc3)S2)s1`
Output: no (0)

Task: Called result for `O=C1OC(c2ccc(-c3ccccc3)cc2)=C/C1=C/c1c2ccccc2cc2ccccc12`
Output: no (0)

---

# Tested on: RPMI-8226 leukemia
# measurement_description: NCI-60 one-dose screen, 48 h (100 = growth as untreated, 0 = no growth, -100 = all killed)
# condition: 10 µM unless noted
This is part of a sample that, as a whole, favours compounds with a hit. Of some 83,000 tested, about 20% had one in any assay.
Binarize growth at 30%; below is 1, at or above is -1.

Task: Find out if reported growth for `CCCCn1c(Cc2ccc(OC)cc2)nc2cc(OC)c(OC)cc2c1=O` is less than 30%
Output: 1

Task: Find out if reported growth for `COc1ccc(Cn2cc3c(c2-c2ccccc2)CCc2cnoc2-3)cc1OC` is less than 30%
Output: 1

Task: Find out if reported growth for `CCOC(=O)NC1=NCC(C)(C)S1` is less than 30%
Output: -1

Task: Find out if reported growth for `COC(=O)c1ccc2[nH]c(O)c(C(=Nc3ccc(N(C)C(=O)CN4CCN(C)CC4)cc3)c3ccc(N)cc3)c2c1` is less than 30%
Output: -1

Task: Find out if reported growth for `O=C(Nc1cccc(Cn2c(=O)[nH]c3ccc(Oc4ncccn4)cc3c2=O)c1)c1cccc(F)c1` is less than 30%
Output: -1

---

# System: IGROV1 ovarian
# measurement_description: NCI-60 one-dose screen, 48 h
# condition: 10 µM unless noted
Compounds without any hit were thinned out: in the full panel of roughly 83,000, 20% have a hit. Calls of active or inactive are those of the source. Rule for the calls: active = growth percent below 10; inactive = the rest.
Hi! Could you answer with just one of these? active, inactive

Task: Called result for `Oc1ccc([S+](c2ccc(O)cc2)c2ccc(O)cc2)cc1`
Output: inactive

Task: Called result for `CC#Cc1nc(Nc2cc(C)[nH]n2)c2ccccc2n1`
Output: active

Task: Called result for `O=C(NC(=S)NNC(=S)NNc1ccccc1)c1ccccc1`
Output: inactive

Task: Called result for `O=C(/C=C\c1ccccc1Cl)c1ccccc1`
Output: inactive

Task: Called result for `CC1(C)NC(=S)NC1=O`
Output: inactive

Task: Called result for `CC(=O)Nc1nc(C)c(C(=O)N/N=C/N2CCOCC2)s1`
Output: inactive

Task: Called result for `COc1ccc(/C=N/c2cc(C(C)(C)C)nn2-c2ccccc2)cc1`
Output: inactive

Task: Called result for `Cc1ncc(C(=O)Nc2ccc(CN3CCN(C)CC3)c(C(F)(F)F)c2)cc1C#Cc1c(N)ncc2ccc(F)cc12`
Output: active

Task: Called result for `Brc1ccc(-c2nc3ccccc3s2)cc1`
Output: inactive

Task: Called result for `O=C(/C=C1\C(=O)N(Cc2ccc([N+](=O)[O-])cc2)c2ccccc21)c1ccc(OCCN2CCCCC2)cc1`
Output: active

Task: Called result for `COc1ccc(/C=C(/C(=O)N2CCCCC2)c2cc(OC)c(OC)c(OC)c2)cc1`
Output: inactive

Task: Called result for `COC(=O)CC(=O)C(=O)OC`
Output: inactive

Task: Called result for `O=C(N/N=C/c1ccccc1Cl)c1cccc2ccccc12`
Output: inactive

Task: Called result for `CCCOC(=O)c1c(C)n(C)c2scc[n+]12`
Output: inactive

Task: Called result for `CSC1=Nc2c(c(C)c(-c3ccccc3)n2CCCCl)C2=NC(=O)CN12`
Output: inactive

Task: Called result for O=P(OCCCl)(OCCCl)C(O)c1ccccc1Cl (centres undefined)
Output: inactive

Task: Called result for `Br/C(=N\Nc1nn[nH]n1)c1ccccc1`
Output: inactive

Task: Called result for `COc1ccc(CNCCCN2C(=O)c3ccc4c5c(ccc(c35)C2=O)C(=O)N(CCCNCc2ccc(OC)c(OC)c2OC)C4=O)c(OC)c1OC`
Output: active

Task: Called result for O=C1Nc2c(c(=O)n(-c3ccccc3)c3ccccc23)C(c2ccc(Cl)cc2)N1 (centres undefined)
Output: inactive

Task: Called result for `CC(=O)/C(=C\c1c(-c2ccccc2)[nH]c2ccccc12)S(=O)(=O)c1ccccc1`
Output: active

Task: Called result for `O=C1NCCN1/N=C/c1c(Cl)nc2n1CCS2`
Output: inactive

Task: Called result for CCOC(=O)C1C(=O)C(=O)N(C(C)C)C1C(=O)OCC (centres undefined)
Output: inactive

Task: Called result for `COc1ccc(/C=C2\SC(=O)N(Cc3cc(=O)oc4ccc(OC)cc34)C2=O)cc1`
Output: inactive

Task: Called result for Cc1ccc2c(O)c(O)cc(NC(C)CCCN)c2n1 (centres undefined)
Output: inactive

Task: Called result for `COc1cccc2c1nc1cccc(OC)c1[n+]2[O-]`
Output: active

Task: Called result for `COc1cc(OC)cc(-c2ccc(-c3ccc(C(=N)N)cc3)s2)c1`
Output: active

Task: Called result for CCC(C)[C@H](NC(=O)Nc1cc(C(F)(F)F)cc(C(F)(F)F)c1)C(=O)N[C@@H](Cc1cn(C)cn1)C(=O)OC (some centres undefined)
Output: active

Task: Called result for `c1ccc(Nc2ccccn2)cc1`
Output: inactive

Task: Called result for `CCCCCCNc1nc(N2CCOCC2)c2[nH]c(NCCCCCC)nc2n1`
Output: active
